pIC50: −log10 of the molar value.
Quick record: pIC50, JNK2 (Homo sapiens (Human), UniProt P45984).
MEASUREMENT_NAME: pIC50

INSERT INTO assay_data (compound_smiles, measurement_name, assay_value) VALUES
  ('O=C(Cc1cccc2cc(C(F)(F)F)cnc12)Nc1scc(Br)c1-c1nc[nH]n1', 'pIC50', '5.00 to 7.00'),
  ('Cc1n[nH]c(-c2c(Cl)csc2NC(=O)CN2C(=O)CCc3ncccc32)n1', 'pIC50', '> 7.00'),
  ('CC(C)c1n[nH]c(-c2c(Cl)csc2NC(=O)CN2C(=O)CCc3ncccc32)n1', 'pIC50', '5.00 to 7.00'),
  ('O=C(Cc1cccc2cnccc12)Nc1scnc1-c1cscn1', 'pIC50', '5.00 to 7.00'),
  ('Cn1cnc(-c2c(C#N)csc2NC(=O)CN2C(=O)CCc3ncccc32)n1', 'pIC50', '> 7.00'),
  ('CCc1n[nH]c(-c2c(Cl)csc2NC(=O)CN2C(=O)CCc3ncccc32)n1', 'pIC50', '5.00 to 7.00'),
  ('COc1ccc(CC(=O)Nc2ccsc2-c2c[nH]c(C)n2)cc1', 'pIC50', '< 4.30'),
  ('O=C(CN1C(=O)CCc2cc(F)ccc21)Nc1scc(Br)c1-c1ncn[nH]1', 'pIC50', '> 7.00'),
  ('COc1ccc(CC(=O)Nc2ccsc2-c2nc(-c3ccncc3)n[nH]2)cc1', 'pIC50', '< 4.30'),
  ('O=C(Cc1cccc2ncccc12)Nc1scc(Br)c1-c1ncn[nH]1', 'pIC50', '> 7.00'),
  ('O=C(Cn1c(=O)ccn2nccc12)Nc1scc(Cl)c1-c1ncn[nH]1', 'pIC50', '> 7.00'),
  ('N#Cc1csc(NC(=O)Cn2c(=O)ccc3cc(C(F)(F)F)ccc32)c1-n1nnc2ccccc21', 'pIC50', '5.00 to 7.00'),
  ('Cc1nnc(-c2sccc2NC(=O)Cc2cccc3ccccc23)o1', 'pIC50', '< 5.00'),
  ('O=C(CN1C(=O)CCc2ncccc21)Nc1scc(Br)c1-c1ncco1', 'pIC50', '> 7.00'),
  ('COc1ccc(CC(=O)Nc2ccsc2-c2nc(C(F)(F)F)n[nH]2)cc1', 'pIC50', '< 5.00'),
  ('COc1ccc(CC(=O)Nc2ccsc2-c2nc(C3CC3)n[nH]2)cc1', 'pIC50', '5.00 to 7.00'),
  ('Cc1nc(-c2sccc2NC(=O)Cc2cccc3ccccc23)n(C)n1', 'pIC50', '< 4.30'),
  ('O=C(Cn1c(=O)ccc2cc(Cl)ccc21)Nc1scc(Br)c1-c1ncn[nH]1', 'pIC50', '> 7.00'),
  ('Cc1n[nH]c(-c2sccc2NC(=O)Cc2ccc(N3CCCC3=O)cc2)n1', 'pIC50', '5.00 to 7.00'),
  ('N#Cc1csc(NC(=O)CN2C(=O)CCc3ncccc32)c1-c1nc2ccccc2s1', 'pIC50', '5.00 to 7.00'),
  ('N#Cc1ccc2c(ccc(=O)n2CC(=O)Nc2scc(Br)c2-c2ncn[nH]2)c1', 'pIC50', '> 7.00'),
  ('O=C(Cn1c(=O)ccn2nc(C(F)(F)F)cc12)Nc1scc(Cl)c1-c1ncn[nH]1', 'pIC50', '> 7.00'),
  ('O=C(Cc1cc(C(F)(F)F)cc2ncccc12)Nc1scc(Br)c1-c1nnc[nH]1', 'pIC50', '5.00 to 7.00'),
  ('N#Cc1csc(NC(=O)Cn2c(=O)ccc3cc(C(F)(F)F)ccc32)c1-c1ncco1', 'pIC50', '> 7.00'),
  ('C#Cc1ccc2c(ccc(=O)n2CC(=O)Nc2scc(Br)c2-c2ncn[nH]2)c1', 'pIC50', '> 7.00'),
  ('N#Cc1csc(NC(=O)Cn2c(=O)ccc3cc(C(F)(F)F)ccc32)c1-n1nccn1', 'pIC50', '> 7.00'),
  ('O=C(Cc1cccc2cnccc12)Nc1scc(Br)c1-c1ncn[nH]1', 'pIC50', '> 7.00'),
  ('O=C(Cc1cccc2ccncc12)Nc1scc(Br)c1-c1ncn[nH]1', 'pIC50', '5.00 to 7.00'),
  ('COc1ccc(CC(=O)Nc2ccsc2-c2cnccn2)cc1', 'pIC50', '5.00 to 7.00'),
  ('COc1ccc(CC(=O)Nc2ccsc2-c2nc(C)n[nH]2)cc1', 'pIC50', '5.00 to 7.00'),
  ('O=C(Cn1c(=O)ccc2cc(C(F)(F)F)ccc21)Nc1scc(Cl)c1-c1ncn(CCCN2CCOCC2)n1', 'pIC50', '> 7.00'),
  ('Cc1n[nH]c(-c2c(C)csc2NC(=O)Cc2ccc(OCCCN3CCCCC3)cc2)n1', 'pIC50', '5.00 to 7.00'),
  ('O=C(Cn1c(=O)ccc2nc(C(F)(F)F)ccc21)Nc1scc(Cl)c1-c1ncn[nH]1', 'pIC50', '> 7.00'),
  ('Cn1cnc(-c2c(Cl)csc2NC(=O)Cn2c(=O)ccc3cnc(C(F)(F)F)cc32)n1', 'pIC50', '> 7.00'),
  ('O=C(Cc1cc2ncccc2cc1F)Nc1scc(Br)c1-c1ncn[nH]1', 'pIC50', '5.00 to 7.00'),
  ('O=C(CN1C(=O)CCc2ccc(Br)cc21)Nc1scc(Br)c1-c1ncn[nH]1', 'pIC50', '5.00 to 7.00'),
  ('O=C(Cn1c(=O)ccc2cnc(C(F)(F)F)cc21)Nc1scc(Br)c1-c1ncn[nH]1', 'pIC50', '> 7.00'),
  ('O=C(Cn1c(=O)ccc2nc(C(F)(F)F)ccc21)Nc1scc(Br)c1-c1ncn[nH]1', 'pIC50', '> 7.00'),
  ('O=C(CN1C(=O)CCc2ncccc21)Nc1scc(Br)c1-c1nccs1', 'pIC50', '5.00 to 7.00'),
  ('COc1ccc(CC(=O)Nc2ccsc2-n2nccn2)cc1', 'pIC50', '5.00 to 7.00'),
  ('COc1ccc(CC(=O)Nc2ccsc2-c2cn(C)cn2)cc1', 'pIC50', '< 4.30');

====

TARGET_ENTITY: JNK1 (Homo sapiens (Human))
Sequence (P45983 other isoform, or with tags, fused parts or gaps isoform P45983-2, species assumed): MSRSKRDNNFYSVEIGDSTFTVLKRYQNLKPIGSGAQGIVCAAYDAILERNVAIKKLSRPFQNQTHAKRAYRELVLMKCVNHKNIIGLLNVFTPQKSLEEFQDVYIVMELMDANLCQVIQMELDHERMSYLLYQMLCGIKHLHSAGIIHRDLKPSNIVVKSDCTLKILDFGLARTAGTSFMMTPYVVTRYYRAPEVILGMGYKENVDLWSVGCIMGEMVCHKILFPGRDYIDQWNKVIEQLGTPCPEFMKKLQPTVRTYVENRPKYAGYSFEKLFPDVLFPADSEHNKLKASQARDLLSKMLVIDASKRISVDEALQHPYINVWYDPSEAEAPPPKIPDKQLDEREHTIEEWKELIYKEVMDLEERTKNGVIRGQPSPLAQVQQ
pIC50: −log10 of the molar value.
Entries annotated with measured pIC50
MEASUREMENT_NAME: pIC50

INSERT INTO measurements (compound_smiles, target_entity, assay_value) VALUES
  ('O=C(Cc1cccc2cnccc12)Nc1scc(Br)c1-c1ncn[nH]1', 'JNK1 (Homo sapiens (Human))', '> 7.00'),
  ('O=C(Cc1ccc2ccc(C(F)(F)F)nc2c1)Nc1scc(Br)c1-c1nc[nH]n1', 'JNK1 (Homo sapiens (Human))', '5.00 to 7.00'),
  ('O=C(Cn1c(=O)ccc2ccc(F)cc21)Nc1scc(Br)c1-c1ncn[nH]1', 'JNK1 (Homo sapiens (Human))', '> 7.00'),
  ('COc1ccc(CC(=O)Nc2ccsc2-c2nc(C3CC3)n[nH]2)cc1', 'JNK1 (Homo sapiens (Human))', '5.00 to 7.00'),
  ('Cc1nc(-c2sccc2NC(=O)CN2C(=O)CCc3ccccc32)c[nH]1', 'JNK1 (Homo sapiens (Human))', '< 5.00'),
  ('O=C(Cn1c(=O)ccc2ccc(C(F)(F)F)cc21)Nc1scc(Br)c1-c1ncn[nH]1', 'JNK1 (Homo sapiens (Human))', '> 7.00'),
  ('COc1ccc(CC(=O)Nc2ccsc2-c2nc(C(C)(C)C)n[nH]2)cc1', 'JNK1 (Homo sapiens (Human))', '5.00 to 7.00'),
  ('O=C(Cn1c(=O)ccc2cc(C(F)(F)F)ccc21)Nc1scc(Br)c1-c1ncn[nH]1', 'JNK1 (Homo sapiens (Human))', '> 7.00'),
  ('COc1ccc(CC(=O)Nc2ccsc2-n2nccn2)cc1', 'JNK1 (Homo sapiens (Human))', '5.00 to 7.00');

====

Quick record: IC50, JNK1 (Homo sapiens (Human), UniProt P45983).
MEASUREMENT_NAME: IC50

INSERT INTO results (compound_smiles, assay_value) VALUES
  ('O=C(Cc1cc(F)cc2ncccc12)Nc1scc(Br)c1-c1ncn[nH]1', '< 0.1 µM'),
  ('COc1ccc(CC(=O)Nc2ccsc2-c2nc(C(F)(F)F)n[nH]2)cc1', '0.1 to 10 µM'),
  ('COc1ccc(CC(=O)Nc2ccsc2-c2nnc(C)o2)cc1', '0.1 to 10 µM'),
  ('CCc1n[nH]c(-c2sccc2NC(=O)Cc2ccc(OC)cc2)n1', '0.1 to 10 µM'),
  ('O=C(Cn1c(=O)ccn2nc(C(F)(F)F)cc12)Nc1scc(Cl)c1-c1ncn[nH]1', '< 0.1 µM'),
  ('O=C(Cn1c(=O)ccn2nccc12)Nc1scc(Cl)c1-c1ncn[nH]1', '< 0.1 µM'),
  ('O=C(Cn1c(=O)ccc2cc(Br)ccc21)Nc1scc(Br)c1-c1nc[nH]n1', '< 0.1 µM'),
  ('O=C(Cn1c(=O)ccc2ncccc21)Nc1scc(Br)c1-c1ncn[nH]1', '< 0.1 µM'),
  ('O=C(Cc1cccc2cnccc12)Nc1scc(Cl)c1-c1ncn[nH]1', '< 0.1 µM');
